Where do the numbers come from? From PubChem BioAssay (NCI).

# Tested on: CAKI-1 renal
# TEST: NCI tumour cell line growth inhibition, 48 h; in the data active means GI50 below about 0.43 µM; inactive means the rest
Outcomes: active, inactive

[
  {
    "MOLECULE": "CCCN(CCC)C(=O)C1=Cc2ccc(-c3ccc(C(=O)N4CCCC4)cc3)cc2N=C(N)C1",
    "GROUP LABEL": "inactive"
  },
  {
    "MOLECULE": "CCC[CH2][Sn]1([CH2]CCC)[O]C(=O)c2cc(I)cc(I)c2[O]1",
    "GROUP LABEL": "inactive"
  },
  {
    "MOLECULE": "COc1cc(NS(C)(=O)=O)ccc1Nc1c2ccc(Cl)cc2nc2c(OC)cccc12",
    "GROUP LABEL": "active"
  },
  {
    "MOLECULE": "COc1ccc2nc(-c3cc(-c4cc(OC)c(OC)c(OC)c4)n[nH]3)[nH]c2c1",
    "GROUP LABEL": "inactive"
  },
  {
    "MOLECULE": "CCN(CC)CCCC(C)Nc1cnc(C(=O)Nc2ccc(Cl)c3cccnc23)cn1 (centres undefined)",
    "GROUP LABEL": "inactive"
  },
  {
    "MOLECULE": "O=C1CC(c2ccc(N3CCOCC3)cc2)(c2ccsc2)NC(=O)C1Sc1ccccc1Cl (centres undefined)",
    "GROUP LABEL": "inactive"
  },
  {
    "MOLECULE": "Cn1ccnc1C(=O)/C=C/c1ccc(C(=O)Nc2ccc(Cl)cc2)cc1",
    "GROUP LABEL": "inactive"
  },
  {
    "MOLECULE": "COc1cc2nc(-c3cnc(N(C)C)nc3)nc(NC3CCN(Cc4ccccc4)CC3)c2cc1OC",
    "GROUP LABEL": "inactive"
  },
  {
    "MOLECULE": "COc1cc2nc3sc(C(=O)Nc4ccc(C(=O)OC(C)C)cc4)c(C(=O)Nc4ccc(Cl)cc4C)n3c(=O)c2cc1OC",
    "GROUP LABEL": "inactive"
  },
  {
    "MOLECULE": "CC1=CC(=NC(=O)CBr)C=C/C1=N\\S(=O)(=O)c1ccccc1",
    "GROUP LABEL": "inactive"
  },
  {
    "MOLECULE": "COc1cc(C(=O)c2ccc3c(c2)OCO3)cc(OC)c1OC",
    "GROUP LABEL": "inactive"
  },
  {
    "MOLECULE": "Cn1cc(-c2nc(-c3c[nH]c4ncccc34)cs2)c2cc(F)ccc21",
    "GROUP LABEL": "inactive"
  },
  {
    "MOLECULE": "COc1ccc(-c2[nH]c3ccccc3c2C=C(C#N)C#N)cc1",
    "GROUP LABEL": "inactive"
  },
  {
    "MOLECULE": "C[n+]1c(/C=C\\c2ccc(Cl)cc2)ccc2ccccc21",
    "GROUP LABEL": "inactive"
  }
]

----------
# Test system: MALME-3M melanoma
# TEST: NCI tumour cell line growth inhibition, 48 h; in the data active = GI50 below about 0.43 µM; inactive = the rest
Outcomes: active, inactive

[
  {
    "MOLECULE": "O=[N+]([O-])c1ccc(Br)c([N+](=O)[O-])c1",
    "GROUP LABEL": "inactive"
  },
  {
    "MOLECULE": "Oc1ccc2cc(Br)ccc2c1-c1c(O)ccc2cc(Br)ccc12",
    "GROUP LABEL": "inactive"
  },
  {
    "MOLECULE": "O=C(Nc1ccccc1O)c1cccc(NC2=C(Cl)C(=O)N(Cc3ccccc3)C2=O)c1",
    "GROUP LABEL": "inactive"
  },
  {
    "MOLECULE": "COc1cc(NS(C)(=O)=O)ccc1Nc1c2ccc(Cl)cc2nc2c(OC)cccc12",
    "GROUP LABEL": "active"
  },
  {
    "MOLECULE": "COC(=O)Nc1nc2ccc(Oc3ccc(NC(=O)Nc4cccc(C(=O)O)c4)cc3)cc2[nH]1",
    "GROUP LABEL": "inactive"
  },
  {
    "MOLECULE": "COc1ccc2c(c1)c(-c1ccc(-c3cn(S(=O)(=O)c4ccccc4)c4ccc(OC)cc34)s1)cn2S(=O)(=O)c1ccccc1",
    "GROUP LABEL": "inactive"
  },
  {
    "MOLECULE": "Cn1nccc1Nc1nccc(-c2cc3c(s2)C(C)(C)N(CCN2CCOCC2)C3=O)n1",
    "GROUP LABEL": "active"
  },
  {
    "MOLECULE": "CC(=O)N1N=C2/C(=C/c3ccccc3)CC(C)CC2C1c1ccccc1 (stereo not drawn)",
    "GROUP LABEL": "inactive"
  }
]
